conditions: in acetone, 288.15 K
The following compounds are listed with their measured solubility (mole fraction) values.
Measure name: solubility (mole fraction)

INSERT INTO measurements (smiles_text, measured_result) VALUES
  ('CCOC(=O)[C@H](CCc1ccccc1)N[C@@H](C)C(=O)N1CCC[C@H]1C(=O)O.O=C(O)/C=C\C(=O)O', 0.0021),
  ('CCOC(=O)[C@H](CCc1ccccc1)N[C@@H](C)C(=O)O', 0.00515);

###

The following molecules are listed with their measured solubility (mole fraction) values.
details: in isopropanol, 288.15 K
Measure name: solubility (mole fraction)

INSERT INTO results (smiles_text, measure_name, measured_result) VALUES
  ('CCOC(=O)[C@H](CCc1ccccc1)N[C@@H](C)C(=O)N1CCC[C@H]1C(=O)O.O=C(O)/C=C\C(=O)O', 'solubility (mole fraction)', 0.000327),
  ('CCOC(=O)[C@H](CCc1ccccc1)N[C@@H](C)C(=O)O', 'solubility (mole fraction)', 0.00141);

Attribution: BigSolDB 2.1
